systemName: T1, human CD25 (IL-2Rα) (human, UniProt P01589 22-213)
T1 chain: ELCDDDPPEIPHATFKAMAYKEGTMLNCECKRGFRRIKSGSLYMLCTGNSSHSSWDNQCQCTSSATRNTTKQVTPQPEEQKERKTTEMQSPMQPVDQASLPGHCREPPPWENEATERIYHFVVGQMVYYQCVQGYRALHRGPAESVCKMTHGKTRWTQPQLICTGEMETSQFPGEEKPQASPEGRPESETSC
assayName: Biacore; pH 6.0
Field: pKd. Provide a value for each of the binders that follow.
Lab note: report pKd as minus log10 of the concentration in molar units, number only.

Lookup: Can you share its pKd? I mean this binder: XENP14206 (T41E F42Y C125S) (protein) APTSSSTKKTQLQLEHLLLDLQMILNGINNYKNPKLTRMLEYKFYMPKKATELKHLQCLEEELKPLEEVLNLAQSKNFHLRPRDLISNINVIVLELKGSETTFMCEYADETATIVEFLNRWITFSQSIISTLT
Found: 4.52

Lookup: Can you share its pKd? I mean this binder: XENP14209 (T41Q F42Y C125S) (protein) APTSSSTKKTQLQLEHLLLDLQMILNGINNYKNPKLTRMLQYKFYMPKKATELKHLQCLEEELKPLEEVLNLAQSKNFHLRPRDLISNINVIVLELKGSETTFMCEYADETATIVEFLNRWITFSQSIISTLT
Found: 5.58

Lookup: Can you share its pKd? I mean this binder: XENP14208 (T41M F42Y C125S) (protein) APTSSSTKKTQLQLEHLLLDLQMILNGINNYKNPKLTRMLMYKFYMPKKATELKHLQCLEEELKPLEEVLNLAQSKNFHLRPRDLISNINVIVLELKGSETTFMCEYADETATIVEFLNRWITFSQSIISTLT
Found: 7.08

Lookup: Can you share its pKd? I mean this binder: XENP14216 (R38V T41R C125S) (protein) APTSSSTKKTQLQLEHLLLDLQMILNGINNYKNPKLTVMLRFKFYMPKKATELKHLQCLEEELKPLEEVLNLAQSKNFHLRPRDLISNINVIVLELKGSETTFMCEYADETATIVEFLNRWITFSQSIISTLT
Found: 6.89
